Recorded measurements of IC50, one per entry
- experimental_target: DNA topoisomerase II (Homo sapiens, UniProt P11388+Q02880)
- assay_explanation: Inhibition of topoisomerase 2 in human HepG2 cells assessed as reduction in cell growth measured after 72 hrs by MTT assay
- Format: cell-based

compound | IC50
COc1ccc(C(O)c2cc(O)c3c(c2O)C(=O)c2ccccc2C3=O)cc1OC (configuration not stated) | > 50 µM
CCOc1ccc(C(O)c2cc(O)c3c(c2O)C(=O)c2ccccc2C3=O)cc1 (configuration not stated) | > 50 µM
O=C1c2ccccc2C(=O)c2c(O)c(C(c3ccc(C(F)(F)F)cc3)N(CCCl)CCCl)cc(O)c21 (configuration not stated) | > 50 µM

What IC50 value was documented for this compound, `O=C1c2ccccc2C(=O)c2c(O)ccc(O)c21` ?
> 200 µM

Try this compound too: CSc1ccc(C(O)c2cc(O)c3c(c2O)C(=O)c2ccccc2C3=O)cc1 (configuration not stated)
> 50 µM

Next: CSc1ccc(C(c2cc(O)c3c(c2O)C(=O)c2ccccc2C3=O)N(CCCl)CCCl)cc1 (configuration not stated)
20.6 µM

Can you check O=C1c2ccccc2C(=O)c2c(O)c(C(O)c3cccs3)cc(O)c21 (configuration not stated) next?
37.9 µM

Here is the next compound: O=C1c2ccccc2C(=O)c2c(O)c(C(c3ccc(OC(F)(F)F)cc3)N(CCCl)CCCl)cc(O)c21 (configuration not stated)
> 50 µM

Do the same for O=C1c2ccccc2C(=O)c2c(O)c(C(c3ccsc3)N(CCCl)CCCl)cc(O)c21 (configuration not stated) please
13.7 µM

How about this compound: `COc1cccc2c1C(=O)c1c(O)c3c(c(O)c1C2=O)C[C@@](O)(C(=O)CO)C[C@@H]3O[C@H]1C[C@H](N)[C@H](O)[C@H](C)O1`
2.6 µM

Also O=C1c2ccccc2C(=O)c2c(O)c(C(O)c3ccsc3)cc(O)c21 (configuration not stated) ?
> 50 µM

Check O=C1c2ccccc2C(=O)c2c(O)c(C(O)c3ccc(OC(F)(F)F)cc3)cc(O)c21 (configuration not stated) too.
26.5 µM

---

- experimental_target: DNA topoisomerase II (Homo sapiens, UniProt P11388+Q02880)
- assay_explanation: Inhibition of topoisomerase 2 in human A549 cells assessed as reduction in cell growth measured after 72 hrs by MTT assay
- Assay type: cell-based
measured_property: IC50 (µM)
# number only, unit µM dropped from output

// worked examples, IC50 included
compound | experimental_target | measurement_units | IC50
O=C1c2ccccc2C(=O)c2c(O)c(C(c3ccsc3)N(CCCl)CCCl)cc(O)c21 (stereo unspecified) | DNA topoisomerase II (Homo sapiens, UniProt P11388+Q02880) | µM | 21.9
O=C1c2ccccc2C(=O)c2c(O)c(C(O)c3ccc(Cl)s3)cc(O)c21 (stereo unspecified) | DNA topoisomerase II (Homo sapiens, UniProt P11388+Q02880) | µM | 33

Proceed to the following item.
Consider the compound O=C1c2ccccc2C(=O)c2c(O)c(C(O)c3ccc(C(F)(F)F)cc3)cc(O)c21 (stereo unspecified) and give its measured IC50.
23.3

---

- experimental_target: DNA topoisomerase II (Homo sapiens, UniProt P11388+Q02880)
- assay_explanation: Inhibition of topoisomerase 2 in human MDA-MB-231 cells assessed as reduction in cell growth measured after 72 hrs by MTT assay
- Format: cell-based
measured_property: IC50

Examples with their reported IC50 follow.
compound | IC50
O=C1c2ccccc2C(=O)c2c(O)c(C(O)c3ccsc3)cc(O)c21 (stereo not drawn) | > 50 µM
O=C1c2ccccc2C(=O)c2c(O)ccc(O)c21 | > 200 µM

Then this compound:
Entry under review: COc1ccc(C(O)c2cc(O)c3c(c2O)C(=O)c2ccccc2C3=O)cc1OC (stereo not drawn) . Reported IC50?
> 50 µM

---

- experimental_target: DNA topoisomerase II (Homo sapiens, UniProt P11388+Q02880)
- assay_explanation: Inhibition of topoisomerase 2 in human A549 cells assessed as reduction in cell growth measured after 72 hrs by MTT assay
- Assay type: cell-based
measured_property: IC50

compound | IC50
COc1ccc(C(O)c2cc(O)c3c(c2O)C(=O)c2ccccc2C3=O)cc1OC (stereo not drawn) | > 50 µM

Entry CSc1ccc(C(O)c2cc(O)c3c(c2O)C(=O)c2ccccc2C3=O)cc1 (stereo not drawn) has what IC50?
> 50 µM

Try this compound next: O=C1c2ccccc2C(=O)c2c(O)c(C(O)c3ccsc3)cc(O)c21 (stereo not drawn)
> 50 µM
